B1: SPOPL (parent)
chain: AKREETKAMESQRAYRFVQGKDWG

variants of: B1; experiment: protein stability index of a GFP-peptide fusion (GPS, HEK-293T) (PSI 1-6); higher = more stable; details: c terminus: a fixed tail appended;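 also: lentivirally expressed fusions sorted by FACS into six bins by GFP to DsRed ratio, PSI derived from sequencing read proportions per bin multiplied by bin number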
Each entry below lists one item and its recorded protein stability index value.
Simply state the number, no unit and no words.

Some variants with recorded protein stability index:
What does the data say about its protein stability index? Entry: T6Y
2.46

What does the data say about its protein stability index? Entry: S11T
2.76

What does the data say about its protein stability index? Entry: E10L
2.3

What does the data say about its protein stability index? Entry: F17M
3.96

What does the data say about its protein stability index? Entry: A8Y
2.77

New cases:
What does the data say about its protein stability index? Entry: A1H
3.61

What does the data say about its protein stability index? Entry: K2Q
3.13

What does the data say about its protein stability index? Entry: R16T
4.04
